- System under test: OaPAC (photoactivated adenylate cyclase) (Oxynema acuminatum, UniProt K9TLZ5)
- Sequence (K9TLZ5 1-366): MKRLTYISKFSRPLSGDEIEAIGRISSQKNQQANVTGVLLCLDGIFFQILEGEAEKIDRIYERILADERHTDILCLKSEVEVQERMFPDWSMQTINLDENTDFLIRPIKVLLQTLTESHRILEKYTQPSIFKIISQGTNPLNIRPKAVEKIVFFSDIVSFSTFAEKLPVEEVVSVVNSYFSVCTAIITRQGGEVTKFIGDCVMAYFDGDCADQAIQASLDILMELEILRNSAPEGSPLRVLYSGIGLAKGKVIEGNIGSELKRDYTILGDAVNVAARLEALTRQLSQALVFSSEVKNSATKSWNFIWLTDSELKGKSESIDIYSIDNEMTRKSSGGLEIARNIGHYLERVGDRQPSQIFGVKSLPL
- Method: steady-state fluorescence anisotropy; stopped-flow fluorescence (KD […])
- Format: binding
- Set-up: gene Oscil6304_3613; Full-length OaPAC (366 aa, homodimer)
Readout: pKd
When answering, recall that pKd equals minus log10 of the concentration in mol/L, and write that number alone.

query: Please look up its pKd: CNc1ccccc1C(=O)O[C@H]1[C@@H](O)[C@H](n2cnc3c(N)ncnc32)O[C@@H]1CO[P@@](=O)(O)O[P@](=O)(O)OP(=O)(O)O [mantATP]
result: 5.65

* * *

- System under test: OaPAC (photoactivated adenylate cyclase) (Oxynema acuminatum)
- Method: ITC (also nanoDSF, SAXS titration, CD)
- Type: binding
- Set-up: gene Oscil6304_3613; Full-length OaPAC (366 aa, homodimer), dark-adapted state
Readout: Kd
Write down the value, and be sure its unit follows.

query: Identify the measured Kd of Nc1ncnc2c1ncn2[C@@H]1O[C@H](COP(=O)(O)OP(=O)(O)OP(=O)(O)O)[C@@H](O)[C@H]1O for OaPAC (photoactivated adenylate cyclase) (Oxynema acuminatum).
result: 3.24 µM
